Where do these numbers come from? They come from patent US20240409645A1.

Listed below: P.E. binding ELISA OD values for each entry.
Target: T1, mouse IL-2Rβ (mouse) (UniProt P16297)
T1 sequence (looked up): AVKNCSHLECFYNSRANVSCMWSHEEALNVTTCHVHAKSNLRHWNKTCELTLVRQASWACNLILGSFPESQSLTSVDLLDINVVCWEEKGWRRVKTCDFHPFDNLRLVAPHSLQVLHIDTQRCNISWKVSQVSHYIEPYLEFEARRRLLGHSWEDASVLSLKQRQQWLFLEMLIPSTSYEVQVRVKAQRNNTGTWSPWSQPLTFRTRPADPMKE
Assay: P.E. ELISA, coated protein
Quick reminder: number only, in OD450 nm, skip the unit.

Reference set (3 entries):
FJ1427_P035MP02B02 (VHH) VHH: EVQLVESGGTLVQTGGSLRLSCVVSGSHFISDVMGWYRQVPGKQRELVADMADGGSAKYGDSVKGRFTIVRDSVKNTVYLQMSSLNPEDTGVYYCKAGLWIKGRHSDYWGQGTQVTVTS: 0.048
FJ1427_P035MP02B03 (VHH) VHH: QVQLVESGGGLVQTGGSLRLSCAASGSRFVSDFMGWYRQVPGKQRELVADMADGGSARYGDSVKGRFTILRDSGNSTAYLQMSSLKPEDTGVYYCKAGLWIAGRHFDYWGQGTQVTVSS: 0.048
FJ1427_P035MP02E05 (VHH) VHH: EVQLVESGGGLVQIGGSLRLSCAASGRTFSSITMAYFRQVPGKEHEWVAGINFSGTRTFYADSVKGRFLISRDDAKSTMYLQMNSLKPEDTAVYYCAASPRGFYGPGNALYDYWGQGTQVTVSS: 0.048

Q: Param item = FJ1427_P035MP02A11 (VHH) VHH: EVQLVESGGGLVQAGGSLRLSCAASGRTFSTTEMGWFRQAPGKEREFVAAITWTGRGTMYAESVEGRFTISRENAKNMVYLQMNSLKPEDTAIYYCAAARRGRAAVRSEGGYDFWGQGTQATVSS ; retrieve measured P.E. binding ELISA OD.
Ans: 0.047

Q: Next entry: FJ1427 P035MP02E06 (VHH) VHH: QVQLVESGGGSVQPGGSLRLSCAASGFTFSNYAMSWVRQAPGKGLEWVASITGFGRGTDYADSVKGRFTISRDNAEDTLYLQMNSLKPEDTAVYYCAKYSSSTYYPPTPARGRDYRGQGTQVTVSS
Ans: 0.048

Q: Query FJ1427 P035MP02H05 (VHH) VHH: EVQLVESGGGSVQTGGSLRLSCVVSGSHFISDVMGWYRQVPGKQRELVADMADGGSAKYGDSVKGRFTILRDSVKNTVTLQMSSLNPEDTGVYYCKAGLWITGRHSDYWGQGTQVTVTS next
Ans: 0.049

Q: Another binder to check: FJ1427_P035MP02A03 (VHH) VHH: QVQLVESGGGLVQPGGSLRLSCAASGFTFSNYAMSWVRQAPGKGLEWVSSITGAGRGTYYAESVKGRFTISRDNDKNTLYLQMNSLKPEDTAVYYCAKYDSSTFYPPTPARGIADRGQGTRVTVSS
Ans: 0.048

Q: Consider next the binder FJ1427 P035MP02C03 (VHH) VHH: EVQLVESGGGLVQTGGSLRLSCAASGSQFINDVMGWYRQVPGKQRELVADMDDTGSTEYADSVKGRFTILRDSVKNTAYLQMSNLKPEDTGVYYCKAGLWIKGRHFDYWGQGTQVTVSS in the same way.
Ans: 0.047

Q: Same lookup for FJ1427_P035MP02G04 (VHH) VHH: QVQLVESGGGLVQAGGSLRLSCAASGSQFINDVMGWYRQVPGKQRELVADMDDTGSTKYADSVKGRFTILRDSVKNTAYLQMSNLKPEDTGVYYCKAGLWIKGRHFDYWGQGTQVTVSS , please.
Ans: 0.048

Q: Further, for FJ1427 P035MP02A04 (VHH) VHH: EVQLVESGGGLVQTGGSLRLSCTASGSQFINDVMGWYRQVPGKQRELVADMDDTGSTKYADSVNGRFTILRDSVKNTAYLQMSNLKPEDTGVYYCKAGLWIKGRHSDYWGQGTQVTVSS ?
Ans: 0.048

Q: Same lookup for FJ1427 P035MP02C06 (VHH) VHH: QLQLVESGGGLVQPGGSLELSCAASGFTFSNYAMSWVRQAPGKGLEWVSSITGFGRGTDYADSVKGRFTISRDNAKNTLYLQMNSLKPEDTAVYYCARYSSSTYYPPTPARGRDYRGQGTQVTVSS , please.
Ans: 0.047

Q: Moving on to the next binder: FJ1427_P035MP02E08 (VHH) VHH: EVQLVESGGGLVQAGGSLRLSCVVSGDVFVRYTMAWFRQAPGKEREFVAVVTDSGRTTEYVDSVKGRFTVSRDNAKNTVYLQMNNLKPEDTAVYYCAANTDYFQIRSVDNNAWGQGTQVTVSS
Ans: 0.058

Q: Another binder to check: FJ1427 P035MP02H04 (VHH) VHH: QVQLVESGGGLVQAGDSLRLSCATSGLTFSSYALGWFRQAPGKKREFVAATTRGGGRTMYAVSTEGRFTCSRDNDKNTVYLLMNSLKPKDTAVYYCAAMTSYYSGTYYPDSSDFDIWGQGTQVTVSS
Ans: 0.05

Q: Now the same for FJ1427 P035MP02H10 (VHH) VHH: EVQLVESGGGLVQAGGSLRLSCAASGDVFVRYTMAWFRQAPGKEREFVASVTDSGRTTDYVDSVKGRFTVSRDNAKNTVYLQMNNLKPEDTAVYYCAANTDYFQIKSLDRNTWGQGTQVTVSS
Ans: 0.051

Q: Likewise for FJ1427_P035MP02B05 (VHH) VHH: EVQLVESGGGLVQTGGSLRLSCAASGSQFINDVMGWYRQVPGKQRELVADMDDTGSTKYADSVKGRFTILRDSVKNTAYLQMSNLKPEDTGVYYCKAGLWIKGRHFDYWGQGTQVTVSS ?
Ans: 0.048
